- target_or_test_system: MAGI2_3, Q86UL8
- Sequence (Q86UL8 600-682): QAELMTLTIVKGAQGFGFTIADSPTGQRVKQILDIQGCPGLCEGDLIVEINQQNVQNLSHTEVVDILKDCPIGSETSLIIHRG
- assay_explanation: holdup assay
- Parameters: key: below the threshold = too weak to quantify, mostly under pKd 3.1 to 4
- assay_conditions: plain residues with an end cap or a label only (N-terminal biotin on a linker: ado-ado)
measurement_kind: pKd

RRLPGKETMA [GRIK2, Q13002]
below the threshold
NHSSSPETTA [TRMT13, Q9NUP7]
below the threshold
YRLAQESGLV [ABCC6, O95255]
below the threshold
LPHGHSTTRV [NLGN4X, Q8N0W4]
4.1
EVNETDDTKM [KCNJ1, P48048]
3.48

Exam item: Report pKd for TLPRKRMSSI [GPRC6A, Q5T6X5] please.
Marked response: below the threshold

Exam item: Now consider EALLQMESVA [CAVIN3, Q969G5] .
Marked response: below the threshold

Exam item: Now consider YLEPVLSSEL [ATP2A2, P16615;P16615-3] .
Marked response: below the threshold
